Read-out: Phosphatase and tensin (PTEN), PTEN (gene 5728)
Assay: LTEA_HepaRG_PTEN: Life Technologies and Expression Analysis (LTEA) Assay for Phosphatase and tensin (PTEN) using HepaRG (AID 2283523)
Conditions: mRNA level, 48 h; actives raise or lower the signal
Experimental: LTEA_HepaRG is a cell based, multiplexed-readout assay that uses HepaRG, a human liver cell line, with measurements taken at 48 hours after chemical dosing on a 96-well plate.LTEA_HepaRG_PTEN is one of 102 assay component(s) measured in the LTEA HepaRG cell culture assay. It is a marker of Cell proliferation, survival, death.Data from the assay component LTEA_HepaRG_PTEN was analyzed into 1 endpoint. […]
The source made the active and inactive calls. Rule for the calls: active = hit-call score of the fitted dose curve at least 0.9, where 1 is the maximum; inactive = score below 0.9.
I would appreciate it if you answered using one of these outcomes: class 1 (active), class 0 (inactive)

[
  {
    "Compound": "CC(C)Oc1cc(-n2nc(C(C)(C)C)oc2=O)c(Cl)cc1Cl",
    "Class": "class 0"
  },
  {
    "Compound": "O=C(O)COc1nc(Cl)c(Cl)cc1Cl",
    "Class": "class 0"
  },
  {
    "Compound": "CCCCOC(=O)c1ccccc1C(=O)OCCCC",
    "Class": "class 0"
  },
  {
    "Compound": "O=C(O)c1nc(Cl)ccc1Cl",
    "Class": "class 0"
  },
  {
    "Compound": "Fc1ccc(Oc2ccnc3cc(Cl)cc(Cl)c23)cc1",
    "Class": "class 0"
  }
]

Query block: Record request — test call for `CC1=C(C(=O)Nc2ccccc2)SCCO1`
Result block: class 0

Query block: Record request — test call for `Oc1ccccc1-c1ccccc1`
Result block: class 0

Query block: Record request — test call for `COc1nc(NC(C)C)nc(NC(C)C)n1`
Result block: class 0

Query block: Record request — test call for `O=C(Nc1ccccc1)Nc1ccnc(Cl)c1`
Result block: class 1

Query block: Record request — test call for CC1COC(Cn2cncn2)(c2ccc(Oc3ccc(Cl)cc3)cc2Cl)O1 (centres undefined)
Result block: class 1
